Test system: E. cloacae NCTC 13405
PROTOCOL NOTES: Broth microdilution MIC/MBC, E. cloacae
Type: cell-based, Enterobacter cloacae
TEST PARAMETERS: value before the parentheses; two values = two repeats
Field: MIC E. cloacae NCTC 13405. Provide a value for each of the compounds that follow.

Query: MIC E. cloacae NCTC 13405 for `COc1ccc([P+]([Au-][Cl])(c2ccc(OC)cc2)c2ccc(OC)cc2)cc1` ?
Reply: >438 µM

Query: MIC E. cloacae NCTC 13405 for `FC(F)(F)c1ccc(P(c2ccc(C(F)(F)F)cc2)c2ccc(C(F)(F)F)cc2)cc1.[Cl][Au]` ?
Reply: >366 µM

Query: MIC E. cloacae NCTC 13405 for `Fc1ccc([PH+](c2ccc(F)cc2)c2ccc(F)cc2)cc1.[Cl][Au]` ?
Reply: >467 µM

Query: MIC E. cloacae NCTC 13405 for `CC[P+](CC)(CC)[Au-][S]c1ccc([N+](=O)[O-])cc1` ?
Reply: >546 µM

Query: MIC E. cloacae NCTC 13405 for COc1ccc([P+]([Au-][S][C@@H]2OC(COC(C)=O)[C@@H](OC(C)=O)[C@H](OC(C)=O)C2OC(C)=O)(c2ccc(OC)cc2)c2ccc(OC)cc2)cc1 (stereo partly shown) ?
Reply: >281 µM

Query: MIC E. cloacae NCTC 13405 for CCCC[PH](CCCC)(CCCC)[Au][Cl] [Compound 26, (Tri-n-butylphosphine)gold Chloride] ?
Reply: >589 µM

Query: MIC E. cloacae NCTC 13405 for `CC[PH](CC)(CC)[Au][S]c1ccc(C(F)(F)F)cc1` ?
Reply: >520 µM
